src = patent US20050226874A1

Target: T1, soluble human recombinant CD4 expressed in baculovirus (human, UniProt P01730 26-396, limits assumed)
T1 construct: Coated on plates for the ELISA and covalently immobilised on the sensor for BIAcore; Only called soluble; also called soluble CD4; CD4 expressed in the baculovirus
Assay: SPR (BIAcore), CD4 immobilised
Method: The kinetic parameters of the binding of CD4 to the paratope of the Fab fragments of the 13B8.2 antibody were determined by analysis of the surface plasmon resonance by means of a BIAcore analyzer (BIAcore AB, Uppsala, Sweden).
Recorded Metric: kon (M⁻¹ s⁻¹)
Give just the numeric value; M⁻¹ s⁻¹ need not be written.

- Binder: "mutant Fab H35-H of the 13B8.2 antibody (Fab, V domains shown, Chimeric Fab with human CH1-γ1 and Cκ; baculovirus/Sf9) VH: QVQLKQSGPGLVQPSQSLSITCTVSGFSLTTFGVAWVRQSPGKGLEWLGVIWRSGITDYNVPFMSRLSITKDNSKSQVFFKLNSLQPDDTAIYYCAKNDPGTGFAYWGQGTLVTVSA VL: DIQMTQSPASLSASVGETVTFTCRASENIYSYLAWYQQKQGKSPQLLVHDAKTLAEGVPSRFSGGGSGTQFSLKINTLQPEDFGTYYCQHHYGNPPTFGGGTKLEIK"
  Readout Unit: "M⁻¹ s⁻¹"
  Obs Value: 301
- Binder: "mutant Fab W103-H of the 13B8.2 antibody (Fab, V domains shown, Chimeric Fab with human CH1-γ1 and Cκ; baculovirus/Sf9) VH: QVQLKQSGPGLVQPSQSLSITCTVSGFSLTTFGVHWVRQSPGKGLEWLGVIWRSGITDYNVPFMSRLSITKDNSKSQVFFKLNSLQPDDTAIYYCAKNDPGTGFAYAGQGTLVTVSA VL: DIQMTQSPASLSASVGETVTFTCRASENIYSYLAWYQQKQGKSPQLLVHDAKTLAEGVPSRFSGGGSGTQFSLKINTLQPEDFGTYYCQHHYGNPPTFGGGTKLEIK"
  Readout Unit: "M⁻¹ s⁻¹"
  Obs Value: 278

Now let's try a different one.
(Q) Quick one: kon of mutant Fab R53-H of the 13B8.2 antibody (Fab, V domains shown, Chimeric Fab with human CH1-γ1 and Cκ; baculovirus/Sf9) VH: QVQLKQSGPGLVQPSQSLSITCTVSGFSLTTFGVHWVRQSPGKGLEWLGVIWASGITDYNVPFMSRLSITKDNSKSQVFFKLNSLQPDDTAIYYCAKNDPGTGFAYWGQGTLVTVSA VL: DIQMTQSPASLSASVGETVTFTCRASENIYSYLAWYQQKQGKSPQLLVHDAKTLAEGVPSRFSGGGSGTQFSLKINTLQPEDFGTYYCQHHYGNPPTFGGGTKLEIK ?
(A) 359
